From: paper doi:10.1101/498865

Exercise: state measured Kd for each of the binders provided.
biological target: Cam1 (fission yeast calmodulin), amino-terminally acetylated (S. pombe, UniProt P05933 1-150, amino-terminal (Nt) acetylation); experiment: FRET; first site (Kd1; <0.1 uM)
Sequence (P05933 whole entry): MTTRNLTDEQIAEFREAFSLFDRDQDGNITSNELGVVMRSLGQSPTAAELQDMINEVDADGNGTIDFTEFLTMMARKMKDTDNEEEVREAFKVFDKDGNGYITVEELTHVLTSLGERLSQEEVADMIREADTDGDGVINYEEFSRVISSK
Your answer should be a plain number; it is taken to be in nM.

Lookup: Which Kd value is on record for DTMATRIQRAWRSYVRRRSEAAACIQKLWNRNKVNMELERVRNEGTK (domain or fragment) [CyPet-Myo1^IQ12-YPet FRET reporter protein] ?
Found: 40

Lookup: Now consider CyPet-DTMATRIQRAWRSYVRRRDEAAACIQKLWNRNKVNMELERVRNEGTK-YPet (domain or fragment, not fully specified) [CyPet-Myo1^IQ12-S742D-YPet FRET reporter protein] and answer again.
Found: 90
